Entries and their cAMP Emax values follow.
Target Of Assay: T1, human GIP receptor (human) (UniProt P48546)
T1 sequence (looked up): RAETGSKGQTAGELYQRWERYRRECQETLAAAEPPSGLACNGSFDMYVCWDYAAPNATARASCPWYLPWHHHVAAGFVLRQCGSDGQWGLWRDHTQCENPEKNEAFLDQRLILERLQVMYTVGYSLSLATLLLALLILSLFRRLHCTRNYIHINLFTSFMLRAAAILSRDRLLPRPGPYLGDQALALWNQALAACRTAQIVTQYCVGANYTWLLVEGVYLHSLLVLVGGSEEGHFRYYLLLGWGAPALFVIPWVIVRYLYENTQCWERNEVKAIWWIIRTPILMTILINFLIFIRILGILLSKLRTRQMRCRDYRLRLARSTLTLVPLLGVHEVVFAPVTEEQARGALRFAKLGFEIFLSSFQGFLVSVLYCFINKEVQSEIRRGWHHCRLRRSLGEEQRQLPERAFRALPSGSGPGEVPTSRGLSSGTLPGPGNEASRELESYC
Experiment Summary: cell-based or functional assay
*1 amine or outer side, *2 acyl side, *3 side chain or, on linkers, in order; H or OH if unused. Where no end group is shown, it is not given here. Side-chain parts run from the residue outwards. [ ]: non-standard residue; d: D form. The star is where a group is joined. Decanoyl(10-(4-HOOC-PhO)) = O=C(O)c1ccc(OCCCCCCCCCC(=O)*)cc1; αMePhe(2-F) = C[C@](N)(Cc1ccccc1F)C(=O)O; γGlu = O=C(O)[C@H](CCC(=O)[*:2])N[*:1]; αMeY = C[C@](N)(Cc1ccc(O)cc1)C(=O)O; αMeL = CC(C)C[C@](C)(N)C(=O)O; Orn = NCCC[C@H](N)C(=O)O; AEEA = NCCOCCOCC(=O)O; Aib = CC(C)(N)C(=O)O
Measured Endpoint: cAMP Emax (%)

Binder | Value Observed
Y[Aib]EGT[αMePhe(2-F)]TSDV[Aib]I[αMeL]LD[Orn]IAQ[Aib]K([AEEA-γGlu-Decanoyl(10-(4-HOOC-PhO))])FI[dE][αMeY]LIK([AEEA-γGlu-Decanoyl(10-(4-HOOC-PhO))])GGPSSGAPPPS-NH2 [Example 382] | 97.6
YXEGTXTSDVXIXLDXKAQXKFIXXLIEGGPSSGAPPPS (Y-Aib-EGT-αMeF(2F)-TSDV-Aib-I-αMeL-LD-Orn-K((2-[2-(2-Amino-ethoxy)-ethoxy]-acetyl)-(γ-Glu)-(10-(4-carboxyphenoxy)decanoyl))AQ-Aib-K((2-[2-(2-Amino-ethoxy)-ethoxy]-acetyl)-(γ-Glu)-(10-(4-carboxyphenoxy)decanoyl))FI-(D-Glu)-αMeY-LIEGGPSSGAPPPS-NH2) [Example 378] | 93.5
YXEGTXTSDXXIXLDXKAQXEFIXXLIEGGPSSGAPPPSK (Y-Aib-EGT-αMeF(2F)-TSD-4Pal-Aib-I-αMeL-LD-Orn-K((2-[2-(2-Amino-ethoxy)-ethoxy]-acetyl)2-(γ-Glu)-CO-(CH2)12-CO2H)AQ-Aib-EFI-(D-Glu)-αMeY-LIEGGPSSGAPPPSK((2-[2-(2-Amino-ethoxy)-ethoxy]-acetyl)2-(γ-Glu)-CO-(CH2)12-CO2H)-NH2) [Example 359] | 103
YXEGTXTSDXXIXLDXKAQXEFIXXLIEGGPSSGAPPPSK (Y-Aib-EGT-αMeF(2F)-TSD-4Pal-Aib-I-αMeL-LD-Orn-K((2-[2-(2-Amino-ethoxy)-ethoxy]-acetyl)2-(γ-Glu)-CO-(CH2)10-CH3)AQ-Aib-EFI-(D-Glu)-αMeY-LIEGGPSSGAPPPSK((2-[2-(2-Amino-ethoxy)-ethoxy]-acetyl)2-(γ-Glu)-CO-(CH2)10-CH3)-NH2) [Example 324] | 101
YXEGTXTSDYXIXLDXKAQXEFIXXLIKGGPSSGAPPPS (Y-Aib-EGT-αMeF(2F)-TSDY-Aib-I-αMeL-LD-Orn-K((2-[2-(2-Amino-ethoxy)-ethoxy]-acetyl)2-(10-(4-carboxyphenoxy)decanoyl))AQ-Aib-EFI-(D-Glu)-αMeY-LIK((2-[2-(2-Amino-ethoxy)-ethoxy]-acetyl)2-(10-(4-carboxyphenoxy)decanoyl))GGPSSGAPPPS-NH2) [Example 396] | 96.2
